FYI, the data here is from paper doi:10.1101/2020.12.12.421834.

biological target: T1, PD1 N-terminal loop-GST fusion protein (Homo sapiens); test: ELISA
T1 chain: LDSPDRPWNP
PROPERTY: binding result

Sample M2-1 anti-PD1 antibody (human IgG4/kappa, C-terminal 6xHis) (antibody, V domains shown) VH: QVQLVESGGDVVQPGGSLRLSCSASGLVFRDYGMNWVRQAPGKGLEWVGLIWYDGTKKYYSDFVKGRFTISRDNSKNMLYLQMNNLRAEDTAIYYCARFLIGATRRGNAMDYWGQGTSVIVSS VL: EVVLTQSPATLSLSPGERATLSCRASQSIDSDLAWSQQKTGQPPRLIIYDASNRATGIPARFSGSGSGTDFTLTISSLEPEDFAVYYCQQRSDWPLTFGGGTKVEIR — what was its binding result?
binds

Sample M1-5 anti-PD1 antibody (human IgG4/kappa, C-terminal 6xHis) (antibody, V domains shown) VH: QVQLVESGGDVVQPGGSLRLSCTVSGAVFRDLGMEWVRQAPGKGLEWLAVIWYDGGRKHYADSVKGRFTISRDNSRNMLFLQMNGLRVDDTAMYYCTRSHSTDDYWGQGTLVTVSS VL: EIVLTQSPATLSVSPGERATLSCRASQSISSDLAWFQQKPGQAPRLIIHGASKRATGIPARFSGSGSGTDFTLTISSLEPEDFAVYYCQQRDSWPLNFGGGTKVEIK — what was its binding result?
binds

Sample M1-4 anti-PD1 antibody (human IgG4/kappa, C-terminal 6xHis) (antibody, V domains shown) VH: QVQLVESGGDVVQPGGSLRLSCAVSGVTFGDFGFEWVRQAPGKGLEWVAVIWYDGSRKHYAESVRGRFTISRDNSRNMMYLEMTGLRVEDTAKYYCTRSHSHEDYWGQGTLVTVSS VL: EIVLTQSPATLSLSPGERATLSCRASQSISNYLAWFQQKSGQAPRLIIHDAFKRAAGIPTRFSGSGSGTDFTLTISSLEPEDFAVYYCQQRDNWPLNFGGGTKVEIK — what was its binding result?
binds
